system: Sterol O-acyltransferase 1 (Homo sapiens) (UniProt P35610)
Sequence (P35610 whole entry): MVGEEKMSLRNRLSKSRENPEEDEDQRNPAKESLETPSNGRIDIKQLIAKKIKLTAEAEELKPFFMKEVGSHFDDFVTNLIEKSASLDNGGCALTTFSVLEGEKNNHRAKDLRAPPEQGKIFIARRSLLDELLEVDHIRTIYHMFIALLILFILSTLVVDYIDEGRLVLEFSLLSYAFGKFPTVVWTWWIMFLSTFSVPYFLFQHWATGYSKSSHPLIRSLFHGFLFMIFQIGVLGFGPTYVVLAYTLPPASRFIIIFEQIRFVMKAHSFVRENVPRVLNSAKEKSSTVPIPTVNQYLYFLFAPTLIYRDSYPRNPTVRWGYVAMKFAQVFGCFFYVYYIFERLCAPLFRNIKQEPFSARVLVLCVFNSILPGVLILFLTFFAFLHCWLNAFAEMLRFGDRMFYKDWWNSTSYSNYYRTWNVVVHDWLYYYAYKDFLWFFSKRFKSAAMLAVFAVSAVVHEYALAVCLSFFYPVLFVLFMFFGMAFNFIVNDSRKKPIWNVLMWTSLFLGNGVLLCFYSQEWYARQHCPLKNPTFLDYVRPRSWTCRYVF
assayInfo: Inhibition of human ACAT1 expressed in CHO cells assessed as inhibition of [3H]cholesterol ester accumulation at 5 uM in presence of 0.1 mM [3H]oleate-conjugated BSA
Format: cell-based
Activity calls are given as the source filed them. The calls are words filed in the database; no cut-off is given here.
valueType: inhibition

Field: example entries. Status: answers known.
>  <testSmiles>
O=C1N/C=C/c2ccc(c(Br)c2)Oc2cc(cc(Br)c2O)CCNC(=O)/C(=N/O)Cc2cc(Br)c(c(Br)c2)Oc2cc(cc(Br)c2O)C/C1=N\O

>  <valueReported>
inactive

$$$$
>  <testSmiles>
O=C1N/C=C/c2ccc(c(Br)c2)Oc2cc(cc(Br)c2O)CCNC(=O)/C(=N/O)Cc2ccc(c(Br)c2)Oc2cc(cc(Br)c2O)C/C1=N\O

>  <valueReported>
inactive

$$$$
>  <testSmiles>
O=C1NCCc2cc(Br)c(O)c(c2)Oc2c(Br)cc(cc2Br)[C@H](O)CNC(=O)/C(=N/O)Cc2cc(Br)c(O)c(c2)Oc2ccc(cc2Br)C/C1=N\O

>  <valueReported>
inactive

$$$$
>  <testSmiles>
O=C1NCCc2cc(Br)c(O)c(c2)Oc2ccc(cc2Br)CCNC(=O)/C(=N\O)Cc2cc(Br)c(O)c(c2)Oc2c(Br)cc(cc2Br)C/C1=N/O

>  <valueReported>
inactive

$$$$
>  <testSmiles>
O=C(NCCc1ccc(O)c(Br)c1)/C(Cc1ccc(O)c(Br)c1)=N\O

>  <valueReported>
inactive

$$$$
>  <testSmiles>
O=C1NCCc2ccc(O)c(c2)Oc2ccc(cc2Br)CCNC(=O)/C(=N/O)Cc2cc(Br)c(O)c(c2)Oc2c(Br)cc(cc2Br)C/C1=N\O

>  <valueReported>
inactive

$$$$
>  <testSmiles>
O=C1NCCc2ccc(O)c(c2)Oc2c(Br)cc(cc2Br)CCNC(=O)/C(=N/O)Cc2cc(Br)c(O)c(c2)Oc2c(Br)cc(cc2Br)C/C1=N\O

>  <valueReported>
57%

$$$$

Proceeding to the next molecule to report its inhibition.
Data request: Fill blank: measured inhibition of the molecule O=C1NCCc2cc(Br)c(O)c(c2)Oc2c(Br)cc(cc2Br)CCNC(=O)/C(=N/O)Cc2cc(Br)c(O)c(c2)Oc2c(Br)cc(cc2Br)C/C1=N\O is ____.
Data returned: 86%
